Biological target: human JAK1 kinase domain (JH1) (Homo sapiens, UniProt P23458)
Construct: recombinantly generated catalytic kinase (also known as JH1) domain of human JAK1, JAK2, JAK3 and TYK2
Sequence (P23458 875-1153 limits assumed): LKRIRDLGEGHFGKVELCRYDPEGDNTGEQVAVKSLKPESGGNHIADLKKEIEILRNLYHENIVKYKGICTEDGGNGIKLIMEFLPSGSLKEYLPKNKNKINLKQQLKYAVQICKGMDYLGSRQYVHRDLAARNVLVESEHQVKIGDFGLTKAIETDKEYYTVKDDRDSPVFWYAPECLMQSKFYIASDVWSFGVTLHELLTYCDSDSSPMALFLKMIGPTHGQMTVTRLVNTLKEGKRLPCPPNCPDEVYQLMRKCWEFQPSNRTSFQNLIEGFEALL
Assay: JH1 biochemical assay for JAK1 (ADP-Glo kinase assay, recombinant JH1 catalytic domain, JAK3-342 peptide, 35 μM ATP)
Settings: JH1 kinase domain, ADP-Glo
Procedure: Compounds of the disclosure were assessed for their ability to inhibit TYK2, JAK1, JAK2, and JAK3 activity. The inhibitory properties of the compounds of the disclosure described herein can be evidenced by testing in any one of the following protocols. The kinase activity of recombinantly generated catalytic kinase (also known as JH1) domain of human JAK1, JAK2, JAK3 and TYK2 were evaluated in a plate-based assay using the ADP-Glo™ Kinase Assay platform. […]
pIC50: −log10 of the molar value. Counter-ions that a name gives are not always drawn.

# molecule, assayed.target, pIC50
measured = [
    ("CC[C@H]1C[C@](C#N)(C2CC2)C(=O)N1c1ccnn2cc(-c3cnn(C)c3)cc12 [Example 32]", "human JAK1 kinase domain (JH1) (Homo sapiens, UniProt P23458)", "< 5.00"),
    ("C[C@@H]1CN(c2ccnn3cc(-c4nccc(C(F)(F)F)n4)cc23)C(=O)[C@]1(C#N)C1CC1 [Example 120, trifluoroacetate]", "human JAK1 kinase domain (JH1) (Homo sapiens, UniProt P23458)", "5.00 to 5.30"),
    ("C[C@@H]1CN(c2ccnn3cc(-c4ccnc(C(F)(F)F)c4)cc23)C(=O)[C@]1(C#N)C1CC1 [Example 69]", "human JAK1 kinase domain (JH1) (Homo sapiens, UniProt P23458)", "6.00 to 7.00"),
    ("CC[C@H]1CN(c2ccnn3cc(-c4cnn(C)c4)cc23)C(=O)[C@@]1(C#N)C1CC1 [Example 25]", "human JAK1 kinase domain (JH1) (Homo sapiens, UniProt P23458)", "< 5.00"),
    ("Cn1cc(-c2cc3c(N4C[C@H](C(F)F)[C@@](C#N)(C5CC5)C4=O)ccnn3c2)cn1 (racemic) [Example 152]", "human JAK1 kinase domain (JH1) (Homo sapiens, UniProt P23458)", "5.30 to 6.00"),
    ("COc1cc(-c2cc3c(N4C[C@@H](C)[C@@](C#N)(C5CC5)C4=O)ccnn3c2)c(OC)nn1 [Example 98]", "human JAK1 kinase domain (JH1) (Homo sapiens, UniProt P23458)", "5.30 to 6.00"),
    ("C[C@@H]1CN(c2ccnn3cc(-c4cncc(C#N)n4)cc23)C(=O)[C@]1(C#N)C1CC1 [Example 133, trifluoroacetate]", "human JAK1 kinase domain (JH1) (Homo sapiens, UniProt P23458)", "5.30 to 6.00"),
]

* * *

Molecular target: human JAK2 kinase domain (JH1) (Homo sapiens, UniProt O60674)
Construct: recombinantly generated catalytic kinase (also known as JH1) domain of human JAK1, JAK2, JAK3 and TYK2
Sequence (O60674 849-1124 limits assumed): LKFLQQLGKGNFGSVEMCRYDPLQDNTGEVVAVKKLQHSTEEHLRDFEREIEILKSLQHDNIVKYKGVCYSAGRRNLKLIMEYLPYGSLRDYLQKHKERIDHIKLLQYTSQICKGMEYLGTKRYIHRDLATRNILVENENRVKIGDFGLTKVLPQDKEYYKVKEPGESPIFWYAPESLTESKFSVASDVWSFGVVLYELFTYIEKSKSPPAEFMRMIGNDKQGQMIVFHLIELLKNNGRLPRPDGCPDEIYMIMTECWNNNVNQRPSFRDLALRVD
Assay: JH1 biochemical assay for JAK2 (ADP-Glo kinase assay, recombinant JH1 catalytic domain, JAK3-974 peptide, 15 μM ATP)
Conditions: JH1 kinase domain, ADP-Glo
pIC50: −log10 of the molar value. Where a name gives a salt, the structure may show the parent alone.
pIC50 values, listed per item

# compound, pIC50
measured = [
    ("Cc1ccc(-c2cc3c(N4C[C@@H](C)[C@@](C#N)(C5CC5)C4=O)ccnn3c2)nn1 [Example 137, trifluoroacetate]", "6.00 to 7.00"),
    ("CC[C@@H]1C[C@](C#N)(C2CC2)C(=O)N1c1ccnn2cc(-c3cnn(C)c3)cc12", "5.30 to 6.00"),
    ("C[C@@H]1CN(c2ccnn3cc(-c4nccn5ccnc45)cc23)C(=O)[C@]1(C#N)C1CC1 [Example 123, trifluoroacetate]", "< 5.00"),
    ("COc1cc(-c2cc3c(N4C[C@@H](C)[C@@](C#N)(C5CC5)C4=O)ccnn3c2)c(F)cn1", "< 5.00"),
]

* * *

IC50 values, listed per item
Target: human JAK2 kinase domain (JH1) (Homo sapiens, UniProt O60674)
Construct: recombinantly generated catalytic kinase (also known as JH1) domain of human JAK1, JAK2, JAK3 and TYK2
Experiment: JH1 biochemical assay for JAK2 (ADP-Glo kinase assay, recombinant JH1 catalytic domain, JAK3-974 peptide, 15 μM ATP)
Conditions: JH1 kinase domain, ADP-Glo
Where a name gives a salt, the structure may show the parent alone.

# compound, assayed.target, IC50
records = [
    ("C[C@@H]1CN(c2ccnn3cc(-c4cn(C)nn4)cc23)C(=O)[C@]1(C#N)C1CC1 [Example 112, trifluoroacetate]", "human JAK2 kinase domain (JH1) (Homo sapiens, UniProt O60674)", "0.1 to 1 µM"),
    ("COc1cnc(-c2cc3c(N4C[C@@H](C)[C@@](C#N)(C5CC5)C4=O)ccnn3c2)nc1 [Example 136, trifluoroacetate]", "human JAK2 kinase domain (JH1) (Homo sapiens, UniProt O60674)", "5 to 10 µM"),
    ("C[C@@H]1CN(c2ccnn3c(F)c(-c4cnn(C)c4)nc23)C(=O)[C@]1(C#N)C1CC1", "human JAK2 kinase domain (JH1) (Homo sapiens, UniProt O60674)", "> 10 µM"),
    ("C[C@@H]1CN(c2ccnn3cc(-c4cc(C(F)(F)F)ncn4)cc23)C(=O)[C@]1(C#N)C1CC1 [Example 121, trifluoroacetate]", "human JAK2 kinase domain (JH1) (Homo sapiens, UniProt O60674)", "5 to 10 µM"),
    ("C[C@@H]1CN(c2ccnn3cc(-c4nnc5n4CCCC5)cc23)C(=O)[C@]1(C#N)C1CC1 [Example 105, trifluoroacetate]", "human JAK2 kinase domain (JH1) (Homo sapiens, UniProt O60674)", "1 to 5 µM"),
    ("[2H]C([2H])([2H])n1cc(-c2cn3ncc(F)c3c(N3C[C@@H](C)[C@@](C#N)(C4CC4)C3=O)n2)cn1", "human JAK2 kinase domain (JH1) (Homo sapiens, UniProt O60674)", "0.1 to 1 µM"),
    ("C[C@@H]1CN(c2ccnn3cc(-c4cnn(CC#N)c4)cc23)C(=O)[C@]1(C#N)C1CC1", "human JAK2 kinase domain (JH1) (Homo sapiens, UniProt O60674)", "< 0.1 µM"),
]

* * *

Molecular target: human JAK1 kinase domain (JH1) (Homo sapiens, UniProt P23458)
Construct: recombinantly generated catalytic kinase (also known as JH1) domain of human JAK1, JAK2, JAK3 and TYK2
Assay: JH1 biochemical assay for JAK1 (ADP-Glo kinase assay, recombinant JH1 catalytic domain, JAK3-342 peptide, 35 μM ATP)
Settings: JH1 kinase domain, ADP-Glo
Structures can show the parent of a compound that is named as a salt.

# molecule, assayed.target, IC50
measured = [
    ("Cc1nc(-c2cc3c(N4C[C@@H](C)[C@@](C#N)(C5CC5)C4=O)ccnn3c2)ccc1F [Example 147, trifluoroacetate]", "human JAK1 kinase domain (JH1) (Homo sapiens, UniProt P23458)", "100 to 1000 nM"),
    ("C[C@@H]1CN(c2ccnn3cc(-c4cnccn4)cc23)C(=O)[C@]1(C#N)C1CC1 [Example 151, trifluoroacetate]", "human JAK1 kinase domain (JH1) (Homo sapiens, UniProt P23458)", "1000 to 5000 nM"),
    ("C[C@@H]1CN(c2ccnn3cc(-c4nccn5ccnc45)cc23)C(=O)[C@]1(C#N)C1CC1 [Example 123, trifluoroacetate]", "human JAK1 kinase domain (JH1) (Homo sapiens, UniProt P23458)", "> 10000 nM"),
    ("CC(O)c1ccc(-c2cc3c(N4C[C@@H](C)[C@@](C#N)(C5CC5)C4=O)ccnn3c2)nc1 (stereo partly shown) [Example 130, trifluoroacetate]", "human JAK1 kinase domain (JH1) (Homo sapiens, UniProt P23458)", "100 to 1000 nM"),
    ("C[C@@H]1CN(c2ccnn3cc(-c4cnn(-c5ccncc5)c4)cc23)C(=O)[C@]1(C#N)C1CC1", "human JAK1 kinase domain (JH1) (Homo sapiens, UniProt P23458)", "100 to 1000 nM"),
    ("CNC(=O)c1ccc(-c2cc3c(N4C[C@@H](C)[C@@](C#N)(C5CC5)C4=O)ccnn3c2)cn1", "human JAK1 kinase domain (JH1) (Homo sapiens, UniProt P23458)", "100 to 1000 nM"),
    ("C[C@@H]1CN(c2ccnn3cc(-c4ccc(OC(F)F)nc4)cc23)C(=O)[C@]1(C#N)C1CC1", "human JAK1 kinase domain (JH1) (Homo sapiens, UniProt P23458)", "100 to 1000 nM"),
]

* * *

Target: human JAK2 kinase domain (JH1) (Homo sapiens, UniProt O60674)
Construct: recombinantly generated catalytic kinase (also known as JH1) domain of human JAK1, JAK2, JAK3 and TYK2
Assay: JH1 biochemical assay for JAK2 (ADP-Glo kinase assay, recombinant JH1 catalytic domain, JAK3-974 peptide, 15 μM ATP)
Settings: JH1 kinase domain, ADP-Glo
pIC50: −log10 of the molar value. Structures can show the parent of a compound that is named as a salt.

# compound, assayed.target, pIC50
measured = [
    ("CNC(=O)c1ccc(-c2cc3c(N4C[C@@H](C)[C@@](C#N)(C5CC5)C4=O)ccnn3c2)cn1 [Example 58]", "human JAK2 kinase domain (JH1) (Homo sapiens, UniProt O60674)", "6.00 to 7.00"),
    ("C[C@@H]1CN(c2ccnn3cc(-c4cnn(C)c4)cc23)C(=O)[C@]1(C#N)C1CC1 [Example 34]", "human JAK2 kinase domain (JH1) (Homo sapiens, UniProt O60674)", "6.00 to 7.00"),
    ("C[C@@H]1CN(c2ccnn3cc(-c4ccc5nccn5c4)cc23)C(=O)[C@]1(C#N)C1CC1 [Example 88]", "human JAK2 kinase domain (JH1) (Homo sapiens, UniProt O60674)", "6.00 to 7.00"),
    ("C[C@@H]1CN(c2ccnc3[nH]c(-c4cnn(C)c4)cc23)C(=O)[C@]1(C#N)C1CC1 [Example 1]", "human JAK2 kinase domain (JH1) (Homo sapiens, UniProt O60674)", "> 7.00"),
    ("C[C@@H]1CN(c2ccnn3cc(-c4cc5n(n4)CCO5)cc23)C(=O)[C@]1(C#N)C1CC1 [Example 110, trifluoroacetate]", "human JAK2 kinase domain (JH1) (Homo sapiens, UniProt O60674)", "6.00 to 7.00"),
    ("C[C@@H]1CN(c2ccnn3cc(-c4ccc(C(F)(F)F)nc4)cc23)C(=O)[C@]1(C#N)C1CC1 [Example 74]", "human JAK2 kinase domain (JH1) (Homo sapiens, UniProt O60674)", "5.30 to 6.00"),
    ("C[C@@H]1CN(c2ccnn3cc(-c4ccc(F)nc4)cc23)C(=O)[C@]1(C#N)C1CC1 [Example 81]", "human JAK2 kinase domain (JH1) (Homo sapiens, UniProt O60674)", "6.00 to 7.00"),
    ("C[C@@H]1CN(c2ccnn3cc(-c4ccn(C)n4)cc23)C(=O)[C@]1(C#N)C1CC1 [Example 63]", "human JAK2 kinase domain (JH1) (Homo sapiens, UniProt O60674)", "6.00 to 7.00"),
]
